Assign Potency to each entry below.
Assay: p53 small molecule agonists, cell-based qHTS assay: qHTS cell viability counter screen (AID 1963581); further: potency means the concentration at half of the fitted maximal effect; nearly all actives have a fitted effect of over 45% in size
Conditions: p53RE-bla HCT-116 viability, ATP luminescence, 16 h; series mostly up to 66 µM
Source text: National Center for Advancing Translational Sciences [NCATS] Division of Preclinical Innovation [DPI] U.S. Environmental Protection Agency [EPA] National Institutes of Environmental Health Sciences [NIEHS] National Toxicology Program [NTP] U.S. Food and Drug Administration [FDA] p53, a tumor suppressor protein, is activated following cellular insult, including DNA damage and other cellular stresses. […] The activation of the reporter gene under culture conditions can be detected by fluorescence intensity. […]
Results filed as inconclusive are left out. Active and inactive are the calls of the source. The call rests on the fitted dose curve.

// solved cases for Potency follow
compound=CCN(CC)c1ccc(C(=C2C=CC(=[N+](CC)CC)C=C2)c2cc(S(=O)(=O)O)ccc2S(=O)(=O)[O-])cc1 val="17.8 µM (active)"
compound=COCCOC val="2.75 µM (active)"
compound="O=C(Nc1ccccc1)OCC(CN1CCCCC1)OC(=O)Nc1ccccc1 (stereo not given)" val="12.6 µM (active)"
compound=CC(C)C[C@H](NC(=O)[C@H](Cc1ccccc1)NC(=O)c1cnccn1)B(O)O val="0.707 µM (active)"
compound=Nc1cccc2c(N)cccc12 val="0.646 µM (active)"
compound=CC/C(=C(\c1ccc(O)cc1)c1ccc(OCCN(C)C)cc1)c1ccccc1 val="20.5 µM (active)"
compound=CCN(Cc1cccc(S(=O)(=O)O)c1)c1ccc(C(=C2C=CC(=[N+](CC)Cc3cccc(S(=O)(=O)O)c3)C=C2)c2ccc(O)cc2S(=O)(=O)[O-])cc1 val="11.1 µM (active)"
compound=Cc1cc(CCN2CCN(c3nsc4ccccc34)CC2)cc2c1NC(=O)CC2(C)C val="45.8 µM (active)"
compound="CCC(C)Nc1ccc(NC(C)CC)cc1 (stereo not given)" val="10.4 µM (active)"

Moving on to the next compound.
Form field Potency, entry `O=C(O)Cc1cc(I)c(Oc2cc(I)c(O)c(I)c2)c(I)c1` : 22.5 µM (active)

The values you see were collected from PubChem BioAssay (Tox21).
